Organism: Rattus norvegicus
assay.protocol: Stimulation of levator ani muscle weight in Sprague-Dawley rat at 2 mg/day relative to testosterone
Type: functional
observable: Activity (%)
Numbers only here, please. The scale is %.

Below are worked cases with known answers.
• CC(=O)Nc1ccc(C2=NN3C(=O)N(c4ccc(C#N)c(C(F)(F)F)c4)C(=O)C3(C)C2)cc1 (stereo not drawn) = 13
• C[C@@]12CC(C(F)(F)F)=NN1[S+]([O-])N(c1ccc(C#N)c(C(F)(F)F)c1)C2=O (stereo partly drawn) = 117
• CC12CC(C(F)(F)F)=NN1C(=O)N(c1ccc([N+](=O)[O-])c(C(F)(F)F)c1)C2=O (stereo not drawn) = 73
• C[C@@]12CC(C(F)(F)F)=NN1C(=O)C(=O)N(c1ccc(C#N)c(C(F)(F)F)c1)C2=O = 21

With those in mind, consider the next molecule.
Enquiry: What value of Activity has been recorded for this entry: C[C@@]12CC(C(F)(F)F)=NN1S(=O)(=O)N(c1ccc(C#N)c(C(F)(F)F)c1)C2=O
Return: 66

###

Tested on: Rattus norvegicus
assay.protocol: Inhibition of prostate weight in Sprague-Dawley rat at 2 mg/day, po relative to control
Format: functional, Prostate gland
The reader will find reported Inhibition values listed item by item below.
Give the quantity in %, number only.

Solved entries:
- CCOC(=O)C1=NN2C(=O)N(c3ccc(C#N)c(C(F)(F)F)c3)C(=O)C2(C)C1 (stereo unspecified): 16
- CN1CC2(C)C(=O)N(c3ccc(C#N)c(C(F)(F)F)c3)C(=O)N2C1=O (stereo unspecified): 87
- CC12COC(=O)N1C(=O)N(c1ccc([N+](=O)[O-])c(C(F)(F)F)c1)C2=O (stereo unspecified): 43
- CC12CC(C(F)(F)F)=NN1C(=O)N(c1ccc([N+](=O)[O-])c(C(F)(F)F)c1)C2=O (stereo unspecified): 39

Enquiry: Could you tell me which Inhibition is on file for CC12COC(=O)N1C(=O)N(c1ccc(Cl)c(C(F)(F)F)c1)C2=O (stereo unspecified) ?
Return: 55

Enquiry: Would you kindly repeat that for CC12CNC(=O)N1C(=O)N(c1ccc([N+](=O)[O-])c(C(F)(F)F)c1)C2=O (stereo unspecified) ?
Return: 32

Enquiry: What would you report for C[C@@]12CC(C(F)(F)F)=NN1[S+]([O-])N(c1ccc(C#N)c(C(F)(F)F)c1)C2=O (stereo partly specified) ?
Return: 41

Enquiry: Check CCOC(=O)C1=NN2C(=O)N(c3ccc([N+](=O)[O-])c(C(F)(F)F)c3)C(=O)C2(C)C1 (stereo unspecified) too.
Return: 35

Enquiry: Queued: C[C@@]12CCCN1C(=S)N(c1ccc(Cl)c(C(F)(F)F)c1)C2=O
Return: 19

###

Inhibition by entry:
System: Rattus norvegicus
assay.protocol: Inhibition of prostate weight in Sprague-Dawley rat at 2 mg/day, po relative to control
Assay type: functional, Prostate gland
Give your result in % as a bare value.

Solved entries (count: 5):
- C[C@@]12CCCN1C(=O)N(c1ccc(Cl)c(Cl)c1)C2=O: 11
- C[C@@]12CC(C(F)(F)F)=NN1C(=O)C(=O)N(c1ccc(C#N)c(C(F)(F)F)c1)C2=O: 27
- C[C@@]12CCCN1C(=S)N(c1ccc(C#N)c(C(F)(F)F)c1)C2=O: 78
- C[C@@]12CC(C(F)(F)F)=NN1C(=O)N(c1ccc(C#N)c(C(F)(F)F)c1)C2=O: 26
- CC12COC(=O)N1C(=O)N(c1ccc(C#N)c(C(F)(F)F)c1)C2=O (stereo not given): 75

Let us examine a further case.
Enquiry: Tell me reported Inhibition for CC12CNC(=O)N1C(=O)N(c1ccc(Cl)c(C(F)(F)F)c1)C2=O (stereo not given) , tested with Rattus norvegicus.
Return: 33

All values here come from ChEMBL document CHEMBL1139725.
